- Tested on: PPARa:RXRa (NR concentration 270 nM, RXRa partner concentration 90 nM)
- ASSAY OVERVIEW: PBM binding z-score (relative to random genomic background probes); higher = stronger binding; sequences stand for … in GC…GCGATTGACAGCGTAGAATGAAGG
Classes are defined on PBM binding z-score with ranges lo = under 1, med = from 1 up to 4, hi = 4 and over

Solved cases (3 shown):
[
  {
    "CHAIN": "TCCTGTAGATCAACAGGAGGTTAAGAAAGATCGA",
    "CLASS NAME": "med"
  },
  {
    "CHAIN": "TCTCGAAGGACACGAAAGGTCAGAGCTCGACATC",
    "CLASS NAME": "med"
  },
  {
    "CHAIN": "CCGACTGGGGCAGAAAGGTTAACATACCATCCGG",
    "CLASS NAME": "med"
  }
]

Into which category would you place `ACTAGTTGGTCAGCTGAGGTCATACACAATTCGG` ?
med

Given `ACTATTAGTTGAGCCGAGGGCAACCGATAGGTTG` , name the class its PBM binding z-score places it in.
lo

====

- System: PPARg:RXRa (NR concentration 180 nM, RXRa partner concentration 90 nM)
- ASSAY OVERVIEW: PBM binding z-score (relative to random genomic background probes); higher = stronger binding; sequences stand for … in GC…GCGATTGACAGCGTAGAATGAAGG
Rule: PBM binding z-score of 3 or more gives 1 (yes); anything lower gives 0 (no).

Answered examples (8):
[
  {
    "CHAIN": "AGAATGAGGTTACCAAAAATCAGGGAAACGCTTG",
    "CLASS NAME": "0 (no)"
  },
  {
    "CHAIN": "AGAATGAGGTTATACGTAGACCAGGGAAGAAAGT",
    "CLASS NAME": "0 (no)"
  },
  {
    "CHAIN": "ATATGTAGGTTAGCTGGGCTCATTCAGACTAGGC",
    "CLASS NAME": "0 (no)"
  },
  {
    "CHAIN": "CCTAGTTGGTCAGGAGGGCACACACCGGATATGA",
    "CLASS NAME": "0 (no)"
  },
  {
    "CHAIN": "ACTGGCAGGCCAAGTTTGGGTCACTCAAACAAAG",
    "CLASS NAME": "0 (no)"
  },
  {
    "CHAIN": "GCTAGTTGGTCAGTAAAAGGACACACACCGGTCG",
    "CLASS NAME": "0 (no)"
  },
  {
    "CHAIN": "ACAGACAGGTGAGTGAAGGTAACTCACCTGGACG",
    "CLASS NAME": "0 (no)"
  },
  {
    "CHAIN": "GCTAGCAGGCCATTTGGGTCACTCGATGACGGGC",
    "CLASS NAME": "0 (no)"
  }
]

Next:
Identify whether the reported PBM binding z-score of the following sequence is 3 or greater: `CGTCCAAGGTCAATGCTAGGTCTGTGAAAGCATT`
1 (yes)

====

- Test system: RARb:RXRa (NR concentration 270 nM, RXRa partner concentration 90 nM)
- ASSAY OVERVIEW: PBM binding z-score (relative to random genomic background probes); higher = stronger binding; sequences stand for … in GC…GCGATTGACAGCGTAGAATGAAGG
OBSERVED PROPERTY: PBM binding z-score
Please reply with the number alone, leaving off any unit.

Recorded results for 5 sequences are shown here.
[
  {
    "CHAIN": "ACTAGTTGGTCATCTGAGGTCACACACAATTCGG",
    "ENDPOINT VALUE": 3.69
  },
  {
    "CHAIN": "CCTACTGGGCCACGAAAGGTCATAGATTCAGTGA",
    "ENDPOINT VALUE": 4.03
  },
  {
    "CHAIN": "AGAATGAGGTTATTAAGATCAGGTAATTGCGGTC",
    "ENDPOINT VALUE": 1.37
  },
  {
    "CHAIN": "TCTATTAGTTGACGGGCAACCGACGAGTCCGTTT",
    "ENDPOINT VALUE": 0.613
  },
  {
    "CHAIN": "TTACCAAGGGGAAAGGTCGTTGATGCACGCCTTG",
    "ENDPOINT VALUE": 1.77
  }
]

Recorded PBM binding z-score for `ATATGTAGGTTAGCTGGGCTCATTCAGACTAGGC` with RARb:RXRa (NR concentration 270 nM, RXRa partner concentration 90 nM), please?
0.456

This collection of values is drawn from the supplement of paper PMC6555819.
